- procedure details: GPR55 agonists via beta-arrestin recruitment, primary screen, imaging, U2OS cells, beta-arrestin-GFP redistribution (AID 1961);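 also: U2OS osteosarcoma cells stably expressing GPR55 and beta-arrestin-GFP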
- condition parameters: measured here: cytotoxicity, cells analyzed, at 10 µM
Hit rate of the full screen: of about 290,000 compounds, about 140 (0.048%) were called active. The full list was thinned out, with actives kept by preference.
result type: cell count (cells)
Answer with a number only, understood to be in cells.

What value of measured cell count is listed for CCOC(=O)CS(=O)(=O)c1nc(-c2ccc(F)cc2)cc(C(F)(F)F)n1 ? 353

What value of measured cell count is listed for Cc1cccc2nc(COc3ccc4ccccc4c3Br)cn12 ? 340

What value of measured cell count is listed for Cc1cccc2cc3c(N)c(C(=O)N4CCCc5ccccc54)sc3nc12 ? 244

What value of measured cell count is listed for CNc1nc(-c2ccc(Cl)cc2)cs1 ? 302

What value of measured cell count is listed for CCS(=O)(=O)N1CCC(C(=O)N2CCc3ccccc3C2)CC1 ? 361

What value of measured cell count is listed for COCCNC(=O)C(c1ccc(F)cc1)N(C(=O)CCC(=O)Nc1ccccn1)c1cccc(C)c1 (centres undefined) ? 316

What value of measured cell count is listed for c1ccc(-c2noc(CN3CCOCC3)n2)cc1 ? 407

What value of measured cell count is listed for O=c1cnnc(SCc2ccc([N+](=O)[O-])cc2)[nH]1 ? 243

---
What value of measured cell count is listed for CC(C)(C)NC(=O)CSc1nncn1NCc1c(Cl)cccc1Cl ? 294

What value of measured cell count is listed for CCC1(C)Cc2c(sc3c2c(=O)n(C)c2nnc(SCCc4ccccc4)n32)CO1 (centres undefined) ? 322

====

- procedure details: GPR55 agonists via beta-arrestin recruitment, primary screen, imaging, U2OS cells, beta-arrestin-GFP redistribution (AID 1961);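 also: U2OS osteosarcoma cells stably expressing GPR55 and beta-arrestin-GFP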
- condition parameters: measured here: cytotoxicity, cells analyzed, at 10 µM
Hit rate of the full screen: of about 290,000 compounds, about 140 (0.048%) were called active. Shown is part of a subset that was picked to be rich in actives.
result type: cell count (cells)
Answer with a number only, understood to be in cells.

What value of measured cell count is listed for CC1=NNC(=O)/C1=C\c1cn(-c2ccccc2)nc1-c1ccc(F)cc1 ? 406

What value of measured cell count is listed for CC1=NNC(=O)/C1=C\c1cn(-c2ccccc2)nc1-c1ccccc1 ? 396

---
What value of measured cell count is listed for c1ccc(-c2cn3nc(-c4ccccc4)c(-c4ccccc4)nc3n2)cc1 ? 374

What value of measured cell count is listed for O=C(CC1CCCCC1)Nc1ccccc1-c1ccccc1 ? 361

What value of measured cell count is listed for c1ccc(-c2cnn3c(-c4ccccc4)c(-c4ccccc4)nc3n2)cc1 ? 310

What value of measured cell count is listed for c1ccc(-c2cnn3nnnc3n2)cc1 ? 327

====

- tested system: G-protein coupled receptor 55 (Homo sapiens)
- procedure details: GPR55 agonists via beta-arrestin recruitment, primary screen, imaging, U2OS cells, beta-arrestin-GFP redistribution (AID 1961);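 also: U2OS osteosarcoma cells stably expressing GPR55 and beta-arrestin-GFP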;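 as to activation: plate controls were DMSO negative control for no effect and LPI positive control for full effect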
- condition parameters: at 10 µM, stronger effect = higher value
Out of some 290,000 compounds screened, about 140 (0.048%) were called active. The sample as a whole holds a higher share of actives than the screen did.
Reported activation values follow for various molecules
Answer with a number only, understood to be in %.

Please review the following examples before continuing.
What value of measured activation is listed for CCOC(=O)N1CCN(c2c(NCCCOC(C)C)c(=O)c2=O)CC1 ? -0.1

What value of measured activation is listed for Cc1nnnn1/C(=C\c1ccccc1)C(=O)OCC(=O)NC(C)(C)C ? -0.3

What value of measured activation is listed for O=C(O)C1CCCN1C(=O)c1cncc(Br)c1 (stereo not drawn) ? -0.2

What value of measured activation is listed for CC(=O)Nc1nc(SCC(=O)Nc2nnc(C)s2)[nH]c(=O)c1NC(=O)c1cccs1 ? 0.7

What value of measured activation is listed for CC(C)(C)NC(=O)CSc1nc(N)c(NC(=O)c2ccccc2F)c(=O)[nH]1 ? 0

---
What value of measured activation is listed for COc1ccccc1Cc1noc(COc2cccc(C)c2C)n1 ? -0.1

What value of measured activation is listed for Cc1ccc(N(CC(=O)NC2CCCC2)C(=O)Cn2nnc(-c3ccccc3F)n2)cc1 ? 0

What value of measured activation is listed for CSc1ccccc1OCc1cc(C(=O)N2CCc3sccc3C2)no1 ? -0.2

What value of measured activation is listed for CCOc1ccc(NC(=O)C2CC(=O)N(c3cc(C)cc(C)c3)C2)cc1 (stereo not drawn) ? -0.1

What value of measured activation is listed for O=[N+]([O-])c1ccc(N/N=C/c2sc(N3CCOCC3)nc2-c2ccccc2)c(S(=O)(=O)Nc2ccccc2Cl)c1 ? 22.5

====

- tested system: G-protein coupled receptor 55 (Homo sapiens) (UniProt Q9Y2T6)
- Sequence (Q9Y2T6 whole entry, looked up): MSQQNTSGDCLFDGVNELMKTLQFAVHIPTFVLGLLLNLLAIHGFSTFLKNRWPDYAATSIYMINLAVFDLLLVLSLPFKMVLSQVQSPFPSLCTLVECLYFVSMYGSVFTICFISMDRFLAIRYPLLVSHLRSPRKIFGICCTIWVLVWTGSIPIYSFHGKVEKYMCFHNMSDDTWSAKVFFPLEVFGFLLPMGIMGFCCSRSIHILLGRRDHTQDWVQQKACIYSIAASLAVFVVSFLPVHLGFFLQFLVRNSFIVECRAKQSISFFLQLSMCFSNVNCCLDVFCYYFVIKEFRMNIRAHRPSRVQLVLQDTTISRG
- procedure details: GPR55 agonists via beta-arrestin recruitment, primary screen, imaging, U2OS cells, beta-arrestin-GFP redistribution (AID 1961);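 also: U2OS osteosarcoma cells stably expressing GPR55 and beta-arrestin-GFP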;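 as to activation: plate controls were DMSO negative control for no effect and LPI positive control for full effect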
- condition parameters: at 10 µM, stronger effect = higher value
The whole screen tested about 290,000 compounds, of which about 140 (0.048%) were called active. Only a selection was taken, and actives are over-represented in it overall.
result type: activation (%)
Answer with a number only, understood to be in %.

Please review the following examples before continuing.
What value of measured activation is listed for Cn1c(=O)c(C(=O)COC(=O)c2cc(-c3ccco3)nc3ccccc23)c(N)n(CC2CC2)c1=O ? 59.6

What value of measured activation is listed for Cc1ccc(C(=O)NC2(C(F)(F)F)NC(=O)N(c3ccc(Cl)cc3)C2=O)cc1 (centres undefined) ? -0.3

What value of measured activation is listed for CC1CCC(C(C)C)C(OC(=O)Cn2c(-c3ccccc3)[n+](C)c3ccccc32)C1 (centres undefined) ? -0.3

What value of measured activation is listed for COc1cccc(NS(=O)(=O)c2ccc3c(c2)NC(=O)C(C)C(=O)N3)c1 (centres undefined) ? -0.1

What value of measured activation is listed for COc1ccc(S(=O)(=O)NCCSC(C)(C)C)cc1Cl ? -0.1

What value of measured activation is listed for CCS(=O)(=O)N1CCC(C(=O)N2CCc3ccccc3C2)CC1 ? 0

What value of measured activation is listed for CCOC(=O)C(CSCC(=O)c1ccc(Cl)cc1Cl)NC(=O)OC(C)(C)C (centres undefined) ? -0.1

What value of measured activation is listed for COc1ccc(OC)c(C2=Nn3c(nnc3-c3cccc(OC(C)C)c3)SC2)c1 ? -0.2

What value of measured activation is listed for CCCOCC(O)COc1ccccc1C(=O)N1CCOCC1 (centres undefined) ? -0.2

What value of measured activation is listed for CCOC(=O)C(CC)(CCC(=O)OC)c1csc(Nc2ccccc2O)n1 (centres undefined) ? -0.1

Let's switch to this compound now.
What value of measured activation is listed for COc1cc(/C=C/c2cc(OC(C)=O)c3ccccc3n2)c(OC(C)=O)c([N+](=O)[O-])c1 ? 0.2

====

- tested system: G-protein coupled receptor 55 (Homo sapiens)
- procedure details: GPR55 agonists via beta-arrestin recruitment, primary screen, imaging, U2OS cells, beta-arrestin-GFP redistribution (AID 1961);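 also: U2OS osteosarcoma cells stably expressing GPR55 and beta-arrestin-GFP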;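 as to activation: plate controls were DMSO negative control for no effect and LPI positive control for full effect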
- condition parameters: at 10 µM, stronger effect = higher value
In all, about 290,000 compounds went through this assay and about 140 (0.048%) were called active. For the sample, actives were picked, then their nearest neighbours and some compounds at random.
Reported activation values follow for various compounds
Answer with a number only, understood to be in %.

Please review the following examples before continuing.
What value of measured activation is listed for O=C(NCc1ccc(F)cc1)C(=O)NCC1OCCCN1S(=O)(=O)c1cccs1 (stereo unspecified) ? -0.1

What value of measured activation is listed for CCOc1ccc2nc(SCC(=O)N3c4ccccc4Sc4ccccc43)c(C#N)cc2c1 ? 112

What value of measured activation is listed for Cc1cccc(NS(=O)(=O)c2cc([N+](=O)[O-])ccc2C)n1 ? -0.1

What value of measured activation is listed for CCOC(=O)Cn1c(CN2CCN(C(c3ccccc3)c3ccccc3)CC2)nc2c1c(=O)n(C)c(=O)n2C ? 0.3

What value of measured activation is listed for COc1ccc(Nc2nc(Cl)c(C=O)s2)cc1 ? 0.2

What value of measured activation is listed for CCOc1ccc2nc(SCC(=O)N3c4ccccc4Sc4ccccc43)sc2c1 ? 16.7

---
What value of measured activation is listed for O=C(C1=C[C@H](c2ccc(C(F)(F)F)cc2)C[C@H](OCc2ccc(CO)cc2)O1)N1CCOCC1 ? 0.1

What value of measured activation is listed for COc1ccc(NC(=O)Cn2c(CCC(=O)O)ccc2-c2ccccc2)cc1 ? 0.2

What value of measured activation is listed for O=C(CNC(=O)c1ccc(N2C(=O)c3ccccc3C2=O)cc1)OCC(=O)c1cccc2ccccc12 ? 0

What value of measured activation is listed for Cc1cc(C(F)(F)F)nc(SCCN2CCCCC2)c1C#N ? -0.2

What value of measured activation is listed for O=C(O)c1ccc[nH]c1=S ? 0

From: PubChem BioAssay AID1961
